target-entity: mouse group 1B PLA2 (mps PLA2) (Mus musculus)
Construct: made in house; host or cells: E. coli
Sequence (Q9Z0Y2 23-146): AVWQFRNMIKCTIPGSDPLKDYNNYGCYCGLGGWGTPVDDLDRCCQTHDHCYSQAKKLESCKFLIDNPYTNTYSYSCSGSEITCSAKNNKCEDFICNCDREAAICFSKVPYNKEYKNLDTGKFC
protocol-description: Fluorimetric PPyrPM assay for group 1B PLA2 inhibition (Example 12)
Assay type: biochemical
test-conditions: mouse pancreas secreted PLA2; read-out: ILYPSA IC50 mps PLA2
Consider the following compounds; for each one, report its pIC50.
Numbers only, as −log10 of the molar value.

Recorded pIC50, per entry:
Cc1c(C(=O)C(N)=O)c2c(OCC(=O)O)cccc2n1CCCCCCCCSCCCCCCCCSCCCCCCCCn1c(C)c(C(=O)C(N)=O)c2c(OCC(=O)O)cccc21 [ILY-V-24] ... 5.98
Cc1c(C(=O)C(N)=O)c2c(OCC(=O)O)cccc2n1CCCCCCCCCCCCN(CCCCCCCCCCCCn1c(C)c(C(=O)C(N)=O)c2c(OCC(=O)O)cccc21)Cc1ccccc1 [ILY-V-31] ... 7.52
Cc1c(C(=O)C(N)=O)c2c(OCC(=O)O)ccc(N)c2n1Cc1ccccc1 [ILY-IV-35] ... 5.76
Cc1c(C(=O)C(N)=O)c2c(OCC(=O)O)cccc2n1Cc1ccc(-c2ccccc2)cc1 [ILY-V-3] ... 6.11
Cc1c(C(=O)C(N)=O)c2c(OC(C(=O)O)C(C)C)cccc2n1CCCCCCCCCCCCn1c(C)c(C(=O)C(N)=O)c2c(OC(C(=O)O)C(C)C)cccc21 (stereo not drawn) [ILY-V-44] ... 6.32

Below are some compounds; for each one, tell me its pIC50.
1. CCCCCCCCn1c(C)c(C(=O)C(N)=O)c2c(OCC(=O)O)cccc21 [ILY-V-2]
2. Cc1c(C(=O)C(N)=O)c2c(OC(C(=O)O)C(C)C)cccc2n1CCCCCCCCCCCCOc1ccccc1OCCCCCCCCCCCCn1c(C)c(C(=O)C(N)=O)c2c(OC(C(=O)O)C(C)C)cccc21 (stereo not drawn) [ILY-V-33]
3. Cc1c(C(=O)C(N)=O)c2c(OCC(=O)O)cccc2n1CCCCCCCCCCCCOc1cc(OCCCCCCCCCCCCn2c(C)c(C(=O)C(N)=O)c3c(OCC(=O)O)cccc32)cc(OCCCCCCCCCCCCn2c(C)c(C(=O)C(N)=O)c3c(OCC(=O)O)cccc32)c1 [ILY-V-32]
4. COc1cccc(Cn2c(C)c(C(=O)C(N)=O)c3c(OCC(=O)O)cccc32)c1 [ILY-V-8]
5. Cc1c(C(=O)C(N)=O)c2c(OCC(=O)O)cccc2n1CCCCCCCCCCCCOc1ccccc1-c1ccccc1OCCCCCCCCCCCCn1c(C)c(C(=O)C(N)=O)c2c(OCC(=O)O)cccc21 [ILY-V-37]
6. Cc1c(C(=O)C(N)=O)c2c(OCC(=O)O)cccc2n1CCCCCCCCCCCCOc1ccc(C(C)(C)c2ccc(OCCCCCCCCCCCCn3c(C)c(C(=O)C(N)=O)c4c(OCC(=O)O)cccc43)cc2)cc1 [ILY-V-30]

[6.68, 6.70, 6.89, 6.01, 6.64, 6.72]

* * *

Consider the following compounds; for each one, report its IC50.
target-entity: mouse group 1B PLA2 (mps PLA2) (Mus musculus)
Construct: made in house; host or cells: E. coli
protocol-description: Fluorimetric PPyrPM assay for group 1B PLA2 inhibition (Example 12)
Type: biochemical
test-conditions: mouse pancreas secreted PLA2; read-out: ILYPSA IC50 mps PLA2
Give bare numbers, in µM.

Recorded IC50, per entry:
Cc1c(C(=O)C(N)=O)c2c(OCC(=O)NS(C)(=O)=O)cccc2n1Cc1ccccc1 [ILY-IV-21] ... 0.32
Cc1c(C(=O)C(N)=O)c2c(OCC(=O)O)cccc2n1CCCCCCCCCCCCSCCCCSCCCCCCCCCCCCn1c(C)c(C(=O)C(N)=O)c2c(OCC(=O)O)cccc21 [ILY-V-25] ... 0.35

Below are some compounds; for each one, tell me its IC50.
1. Cc1c(C(=O)C(N)=O)c2c(OCC(=O)O)cccc2n1CCCCCCCCCCCCOc1ccc(-c2ccc(OCCCCCCCCCCCCn3c(C)c(C(=O)C(N)=O)c4c(OCC(=O)O)cccc43)cc2)cc1 [ILY-V-36]
2. Cc1c(C(=O)C(N)=O)c2c(OCC(=O)O)ccc(NS(C)(=O)=O)c2n1Cc1ccccc1 [ILY-IV-37]

1: 0.92; 2: 1.02
